Cited source for all entries: paper PMC7826789

system: FLT3; details: Compound Concentration (nM):1000
Each record here notes measured Percent Control.

Compound: CCn1c(-c2nonc2N)nc2c(C#CC(C)(C)O)nc(OCCNC)cc21.Cl [GSK949675]
Study System: FLT3
Unit Name: %
Percent Control: 100
//
Compound: COc1cc(/C=N/Nc2ncnc3[nH]ncc23)ccc1O [GW578748X]
Study System: FLT3
Unit Name: %
Percent Control: 71
//
Compound: O=C1Nc2ccc(C(=O)c3ccco3)cc2C1=Cc1cc(Cl)c(O)c(Cl)c1 [GW406108X]
Study System: FLT3
Unit Name: %
Percent Control: 71
//
Compound: NS(=O)(=O)c1ccc(Nc2ncc(-c3ccccc3)o2)cc1 [GW572399X]
Study System: FLT3
Unit Name: %
Percent Control: 11
//
Compound: CN(C)CCNC(=O)Nc1ccc(N(C)c2ccnc(Nc3ccc(CS(C)(=O)=O)cc3)n2)cc1.Cl [GW830900A]
Study System: FLT3
Unit Name: %
Percent Control: 2.9
//
Compound: CCc1ccc(Oc2nccc(-c3c(-c4ccc(F)cc4)ncn3C3CCNCC3)n2)cc1 [SB-242719]
Study System: FLT3
Unit Name: %
Percent Control: 71
//
Compound: COc1cc2ncnc(Nc3ccc4c(cnn4Cc4ccccc4)c3)c2cc1OC.Cl [GW282449A]
Study System: FLT3
Unit Name: %
Percent Control: 45
//
Compound: NS(=O)(=O)c1ccc(N/N=C2\C(=O)Nc3ccc(C(=O)NCCc4c[nH]cn4)cc32)cc1 [GW300660X]
Study System: FLT3;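 note: KINOMEscan scanMAX binding as percent activity remaining versus control; lower means stronger binding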
Unit Name: %
Percent Control: 90
//
Compound: CC1=C(C(=O)Nc2ccc3[nH]ncc3c2)C(c2ccc(Cl)c(Cl)c2)CC(=O)N1 (centres unmarked) [GSK299115A]
Study System: FLT3;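 note: KINOMEscan scanMAX binding as percent activity remaining versus control; lower means stronger binding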
Unit Name: %
Percent Control: 100
//
Compound: NS(=O)(=O)c1ccc(N/N=C2\C(=O)Nc3ccc(-c4cnco4)cc32)cc1 [GW276655]
Study System: FLT3;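 note: KINOMEscan scanMAX binding as percent activity remaining versus control; lower means stronger binding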
Unit Name: %
Percent Control: 100
//
Compound: C/C(Nc1ccc(S(N)(=O)=O)cc1)=C1/C(=O)Nc2ccccc21 [GW335962X]
Study System: FLT3;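 note: KINOMEscan scanMAX binding as percent activity remaining versus control; lower means stronger binding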
Unit Name: %
Percent Control: 56
